biological target: SpSla1-D1-D2; experiment: SPOT peptide array binding signal intensity (averaged, normalized) (arbitrary units (background-subtracted, floor 0; scale differs between SH3 domains)); higher = stronger binding of the SH3 domain to the peptide
reported.endpoint: SPOT peptide array binding signal intensity
Answer with the value's number alone.

Problem: Fill in the blank: the reported SPOT peptide array binding signal intensity of `LPPPPPPPPPPPLPQ` is ____.
Result: 3

Problem: Fill in the blank: the reported SPOT peptide array binding signal intensity of `LKRITSPPLPPRADS` is ____.
Result: 1

Problem: Fill in the blank: the reported SPOT peptide array binding signal intensity of `PPLPRAPPVPPATFE` is ____.
Result: 3

Others:
Problem: Fill in the blank: the reported SPOT peptide array binding signal intensity of `VATSTSPKLPPRGKQ` is ____.
Result: 2

Problem: Fill in the blank: the reported SPOT peptide array binding signal intensity of `YLTRPLPSTPNEDSR` is ____.
Result: 9
